All figures here come from ChEMBL document CHEMBL1149223.

The following compounds are listed with their measured IC50 values.
- TEST_TARGET: RNA-directed RNA polymerase (Hepacivirus hominis)
- Sequence (O39930 whole entry): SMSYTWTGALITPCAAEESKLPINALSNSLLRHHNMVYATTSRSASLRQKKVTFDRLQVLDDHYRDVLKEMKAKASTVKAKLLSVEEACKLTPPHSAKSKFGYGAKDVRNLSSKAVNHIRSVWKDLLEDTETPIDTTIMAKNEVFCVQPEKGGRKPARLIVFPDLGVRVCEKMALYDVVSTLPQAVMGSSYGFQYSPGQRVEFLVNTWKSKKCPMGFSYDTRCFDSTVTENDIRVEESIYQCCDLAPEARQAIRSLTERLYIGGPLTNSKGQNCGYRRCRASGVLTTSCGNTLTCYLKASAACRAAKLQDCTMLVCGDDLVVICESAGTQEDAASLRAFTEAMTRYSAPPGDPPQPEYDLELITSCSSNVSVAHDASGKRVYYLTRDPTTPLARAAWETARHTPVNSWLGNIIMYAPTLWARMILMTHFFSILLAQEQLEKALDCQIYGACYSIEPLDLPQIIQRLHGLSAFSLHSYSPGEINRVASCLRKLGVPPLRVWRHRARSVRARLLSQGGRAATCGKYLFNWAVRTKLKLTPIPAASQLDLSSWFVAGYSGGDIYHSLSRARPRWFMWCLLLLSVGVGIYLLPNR
PROPERTY_MEASURED: IC50

STRUCTURE_NOTATION	RECORDED_VALUE
Cc1c(-c2nc3cc(C(=O)O)ccc3n2C2CCCCC2)[nH]c2ccccc12	> 30 µM
O=C(O)c1ccc2c(c1)nc(-c1nccs1)n2C1CCCCC1	4.6 µM
Cc1cccc(-c2nc3cc(C(=O)O)ccc3n2C2CCCCC2)n1	> 30 µM
Cc1[nH]cnc1-c1nc2cc(C(=O)O)ccc2n1C1CCCCC1	> 30 µM
